# tested on: DGKα (Homo sapiens (Human))
# Sequence (P23743 other isoform, or with tags, fused parts or gaps): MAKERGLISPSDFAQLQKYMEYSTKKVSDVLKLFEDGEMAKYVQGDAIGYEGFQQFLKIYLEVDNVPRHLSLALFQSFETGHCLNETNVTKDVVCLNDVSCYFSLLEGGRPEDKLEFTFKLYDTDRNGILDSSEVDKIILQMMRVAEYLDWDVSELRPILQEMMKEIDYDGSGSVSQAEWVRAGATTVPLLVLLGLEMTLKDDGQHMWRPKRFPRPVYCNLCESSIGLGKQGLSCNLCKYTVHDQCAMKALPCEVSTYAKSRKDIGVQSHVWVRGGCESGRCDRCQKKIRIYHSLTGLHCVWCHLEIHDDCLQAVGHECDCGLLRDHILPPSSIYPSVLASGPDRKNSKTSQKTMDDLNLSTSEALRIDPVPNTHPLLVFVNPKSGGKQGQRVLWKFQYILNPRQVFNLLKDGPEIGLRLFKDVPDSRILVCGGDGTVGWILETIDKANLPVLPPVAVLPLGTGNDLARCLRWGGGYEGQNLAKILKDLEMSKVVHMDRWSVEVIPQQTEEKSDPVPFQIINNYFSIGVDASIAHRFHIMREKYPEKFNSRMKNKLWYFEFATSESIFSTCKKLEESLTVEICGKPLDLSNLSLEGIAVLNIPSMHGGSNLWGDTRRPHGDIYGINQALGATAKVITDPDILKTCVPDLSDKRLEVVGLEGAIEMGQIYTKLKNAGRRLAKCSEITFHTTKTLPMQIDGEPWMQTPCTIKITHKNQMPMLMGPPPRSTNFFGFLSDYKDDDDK
# method summary: Human DGKα kinase activity inhibition assay (ADP-Glo)
# condition info: recombinant full-length human DGKα, 55 μM ATP, 7 μM 1,2-dioleoyl-sn-glycerol, read-out: IC50 values of examples in in vitro human DGKa kinase activity inhibition assays
readout type: IC50 (nM)
The response must be a number in nM with no trailing unit.

# example entries with known answers
Cn1c(=O)c(C#N)c(N2CCC(c3nc4cc(C(F)(F)F)ccc4s3)CC2)c2ccccc21    12
COc1ccc(-c2noc(C3CCN(c4c(C#N)c(=O)n(C)c5ccccc45)CC3)n2)cc1    15

Query: Could you tell me which IC50 is on file for Cc1cc(C2(C)CCN(c3c(C(N)=O)c(=O)n(C)c4ccccc34)CC2)nc2ccccc12 ?
Result: 13
